Measured GI50 of individual entries
Test system: SF-268
Test: NCI tumour cell line growth inhibition, 48 h
Active and inactive are the calls of the source. Rule as the data show it: active = GI50 up to about 1.1 µM and inactive = higher.

>  <compound>
CCN1C[C@]2(C)CC[C@H](O)C34C1C(C[C@@H]32)[C@@]1(O)CC[C@H]2C[C@@H]4[C@@H]1[C@H]2O

>  <GI50>
> 100 µM (inactive)

$$$$
>  <compound>
COc1ccc2c(c1)-c1c(c3cc(OC)ccc3n1CCN1CCOCC1)CC2

>  <GI50>
55 µM (inactive)

$$$$
>  <compound>
Nc1nc(-c2ccco2)cc(-c2ccco2)n1

>  <GI50>
> 100 µM (inactive)

$$$$
>  <compound>
CC1(C)OC2CC3COC(=O)C3CC2O1 (centres undefined)

>  <GI50>
> 100 µM (inactive)

$$$$
>  <compound>
O/N=C1/CCC/C1=C\c1ccccc1

>  <GI50>
> 100 µM (inactive)

$$$$

Which GI50 value is on record for ClC(Cl)(Cl)C1=N[C@H]2[C@H](Br)[C@@H]3O[C@@H](c4ccccc4)[C@H](c4ccccc4)O[C@@H]3[C@H]2O1 ?
18.4 µM (inactive)

For the compound shown here, O=C(Nc1cccc(C(F)(F)F)c1)C(=O)C1NC(=S)NC1=O (centres undefined) , give the reported GI50.
> 100 µM (inactive)

Any idea what its GI50 is? The compound is CCN1c2ccccc2NC(=S)c2c(-c3ccccc3)n[nH]c21
27.4 µM (inactive)

----------
Item-by-item account of GI50
Tested on: SK-MEL-2
Test: NCI tumour cell line growth inhibition, 48 h
Calls of active or inactive are those of the source. No stated cut-off is given here; in the data, active = GI50 up to about 1.1 µM and inactive = higher.

>  <compound>
O=C(O)c1cn2c3c(cc(N4CCN(CCO)CC4)cc3c1=O)SCC2

>  <GI50>
48.4 µM (inactive)

$$$$
>  <compound>
CCOC(=O)c1nc2ccccc2nc1Nc1ccc(C(=O)OC)s1

>  <GI50>
> 100 µM (inactive)

$$$$
>  <compound>
O=C(CCNC12CC3CC(CC(C3)C1)C2)c1ccccc1

>  <GI50>
15.9 µM (inactive)

$$$$
>  <compound>
CCCc1[nH]nc(C(N)=O)c1/N=N/N(C)C

>  <GI50>
> 100 µM (inactive)

$$$$
>  <compound>
OCCSCc1cc2c(O)c(c1)Cc1cc(CSCCO)cc(c1O)Cc1cc(CSCCO)cc(c1O)Cc1cc(CSCCO)cc(c1O)C2

>  <GI50>
2.32 µM (inactive)

$$$$
>  <compound>
O=C(Nc1cccc(C(F)(F)F)c1)C(=O)C1NC(=S)NC1=O (stereo not drawn)

>  <GI50>
> 100 µM (inactive)

$$$$
>  <compound>
C/C(=C\COP(=O)(O)OP(=O)(O)O)CC/C=C(\C)CNc1ccccc1

>  <GI50>
> 50 µM (inactive)

$$$$

Fill blank: measured GI50 of the compound OCC1CCCCCCCCCCC12SCCCS2 (stereo not drawn) is ____.
> 100 µM (inactive)

----------
Tested on: SF-539
Assay: NCI tumour cell line growth inhibition, 48 h
Calls of active or inactive are those of the source. Cut-off read from the data, not from the text of the source: active = GI50 up to about 1.1 µM and inactive = higher.
The reply should be one of these categories: T = active, F = inactive

>  <compound>
CCOC1NC(=O)c2ccccc21 (centres undefined)

>  <tested_target>
SF-539

>  <answer_label>
F

$$$$
>  <compound>
COc1cc2c(cc1OC)C(Cc1cc(Br)c(OC)c(OC)c1)=[N+](C)CC2

>  <tested_target>
SF-539

>  <answer_label>
F

$$$$
>  <compound>
CCCCCC[C@H]1CC(=O)C2CCCC[C@@]23CC[C@H](CCl)N13.CCCCCC[C@H]1CC(=O)C2CCCC[C@@]23C[C@H](Cl)CN13 (some centres undefined)

>  <tested_target>
SF-539

>  <answer_label>
F

$$$$
>  <compound>
O=C(OCc1ccccc1C1CSCSC1)c1cc(C(=O)OCc2ccccc2C2CSCSC2)c(C(=O)OCc2ccccc2C2CSCSC2)cc1C(=O)OCc1ccccc1C1CSCSC1

>  <tested_target>
SF-539

>  <answer_label>
F

$$$$

I'd appreciate the recorded outcome for COC(=O)C1=C(C[S+]([O-])c2ccc([N+](=O)[O-])cc2[N+](=O)[O-])ON(C)C1c1ccccc1 (centres undefined) from this test.
F

Dear all, I need the recorded test outcome for COc1cccc([C@H]2CC(=O)c3cc4c(cc3N2)OCO4)c1 , thank you.
T

// param item: Oc1c2c(nc3cc4c(cc13)OCO4)-c1ccccc1CC2 ; yields the recorded call
F

Lab log entry: Cc1ccc(C)c(NC(=O)C(=O)C(C(=O)c2ccc3ccccc3c2)C2OC(=O)c3ccccc32)c1 (centres undefined) — outcome as called in the assay?
F

For this compound, state the assay outcome: COc1cc2cc(C(=O)N3CC(CCl)c4c3cc(N)c3ccccc43)[nH]c2cc1OCCN(C)C (centres undefined)
T
